Origin of measurements: PubChem BioAssay (NCI)

Tested on: OVCAR-5 ovarian
Test: NCI-60 one-dose screen, 48 h (100 = growth as untreated, 0 = no growth, -100 = all killed)
Conditions: 10 µM unless noted
Compounds without any hit were thinned out: in the full panel of roughly 83,000, 20% have a hit.
Let's look at some compounds and their measured growth.

compound	readoutUnits	growth
CN1CCN(c2cnc(C(=O)Nc3cc(F)cc4cccnc34)cn2)CC1	%	62.7
Cn1c(=O)c2[nH]c(CCCc3nc4c([nH]3)c(=O)n(C)c(=O)n4C)nc2n(C)c1=O	%	122
CO[C@@H]1[C@H](N(C)C(=O)c2ccccc2)C[C@@H]2O[C@]1(C)n1c3ccccc3c3c4c(c5c6ccccc6n2c5c31)C(=O)NC4=O	%	57
COc1ccc(C2CC(c3cccc(Nc4ccncc4)c3)=NN2c2cc(Cl)cc(Cl)c2)cc1 (centres undefined)	%	82.5
Cc1ccc(O)c(C(=O)O)c1	%	108
Cc1cc2nc(-c3ccccc3)c(-c3ccccc3)nc2cc1C	%	115
C=C1C(=O)O[C@H]2[C@H]1CC/C(CNC(=O)/C=C/c1ccccc1F)=C\CC[C@@]1(C)O[C@@H]21	%	27.7
O=C(Nc1sc2c(c1C(=O)O)CCCC2)c1cccc(C(F)(F)F)c1	%	98.5
N/C(=N\N=C\c1cc2ccccc2[nH]1)N/N=C/c1cc2ccccc2[nH]1	%	109

* * *

Let's look at some compounds and their measured growth.
Test system: M14 melanoma
Test: NCI-60 one-dose screen, 48 h (100 = growth as untreated, 0 = no growth, -100 = all killed)
Conditions: 10 µM unless noted
Compounds without any hit were thinned out: in the full panel of roughly 83,000, 20% have a hit.

compound	growth [%]
O=C(c1ccccc1)N1N=C(c2ccc(-n3ccc(C(F)(F)F)n3)cc2)CC1c1ccc[nH]1 (centres undefined)	79
COc1cccc(NC(=O)c2cccc(-c3cc(=O)c4c(OC)c(OC)c(OC)cc4o3)c2)c1	73.5
CC[C@H](CC[C@@H](C)[C@H]1CC[C@H]2[C@@H]3CC=C4C[C@@H](OCCc5nn[nH]n5)CC[C@]4(C)[C@H]3CC[C@]12C)C(C)C	108
COc1ccc(/C=N/NC(=O)c2cccc3cc[nH]c23)cc1O	0.307

* * *

Let's look at some molecules and their measured growth.
Test system: UACC-62 melanoma
Test: NCI-60 one-dose screen, 48 h (100 = growth as untreated, 0 = no growth, -100 = all killed)
Conditions: 10 µM unless noted
Compounds without any hit were thinned out: in the full panel of roughly 83,000, 20% have a hit.

molecule	readoutUnits	growth
O=C1c2cccnc2C(=O)c2nc3cc(N4CCN(C5CC5)CC4)ccc3nc21	%	-98.5
C/C(=C(/c1ccccc1)c1ccc(OCC(O)CNCCN2CCOCC2)cc1)c1ccccc1 (stereo not given)	%	62.8
CCNC(=O)c1[nH]cc(-c2ccc(OC)cc2)c1-c1cc(OC)cc(OC)c1	%	48.2
COc1cc(C(=O)/C=C/c2c(C)n([O-])c3ccc(Cl)cc3[n+]2=O)cc(OC)c1OC	%	60.4
CN(C)CCCn1c2c(c3ccc(-c4ccn[nH]4)cc3c1=O)C(=O)c1ccccc1-2	%	50.3
COc1ccc(-c2nn(Cc3ccccc3)c3c2-c2oncc2CC3)cc1OC	%	86.8
O=C(O)CNC(=O)CN1C(=O)c2ccccc2C1=O	%	108
CC1=CC2(C)/C=C(C)/C=C\CC(O)/C=C3/C=CC(=C4C(=O)OC2(CC1C)C4=O)OC3 (stereo not given)	%	6.46
CN1CCN(c2ccc(NC3=C(Cl)C(=O)c4ncccc4C3=O)cc2C#N)CC1	%	83.4
O=C1c2ccccc2C(=O)c2c(NCCN=Cc3ccccc3O)cccc21	%	62.8

* * *

Let's look at some compounds and their measured growth.
System: BT-549 breast
Assay: NCI-60 one-dose screen, 48 h (100 = growth as untreated, 0 = no growth, -100 = all killed)
Conditions: 10 µM unless noted
About 83,000 compounds went through this panel and 20% of them were active in at least one assay; those are over-represented in the sample as a whole.

compound	readoutUnits	growth
CN(Cc1ccccc1)c1nc(Cl)c(C2CC(c3ccc(Cl)cc3)=Cc3[nH][nH]c(=O)c32)s1 (stereo not given)	%	67.7
c1ccc(N2N=C(c3cccc(Nc4ccncc4)c3)CC2c2ccc3c(c2)OCO3)cc1 (stereo not given)	%	80
COc1ccccc1OCC(=O)N1CCCCCC1	%	129
COc1cccc(CCC(=O)c2cc3c(N)c(C(=O)Nc4ccccc4)sc3nc2C)c1	%	44.8
CCCC/C(=N\N=C(N)N)c1ccc(F)cc1	%	21.6

* * *

System: KM12 colon
Test: NCI-60 one-dose screen, 48 h (100 = growth as untreated, 0 = no growth, -100 = all killed)
Conditions: 10 µM unless noted
About 83,000 compounds went through this panel and 20% of them were active in at least one assay; those are over-represented in the sample as a whole.
Let's look at some compounds and their measured growth.
readoutKind: growth (%)

compound	readoutValue
CC(=O)NCCCS(=O)(=O)O	102
Cc1cccc(Oc2ccc(Nc3ncnc4ccc(NC(=O)CN(C)C)cc34)cc2Cl)c1	35.1
COc1cccc2c1C(=O)c1c(O)c3c(c(O)c1C2=O)C[C@@](O)(C(=O)CO)C[C@@H]3O[C@H]1C[C@H](N)[C@@H](O)[C@H](C)O1	1.25
ClCC1(Cn2cnc3c(Cl)nc(Cl)nc32)COC1	97.5
CCc1nc(C)cn1C(=O)OCc1nc2nc(Cl)nc(N3CCOCC3)c2[nH]1	20.8
O=C(OC(OC(=O)c1cc(Cl)cc(Cl)c1)c1cccc2ccccc12)c1ccccc1 (stereo not given)	102
Cn1c(COC(=O)NCCc2ccccn2)nc2c(N3CCOCC3)nc(Cl)nc21	44.3
COc1cc(NCC(O)CN(CC(C)C)C2CCCC2)c2ncccc2c1 (stereo not given)	87
C/C(=C(/c1ccccc1)c1ccc(OCC(O)CN2CCOCC2)cc1)c1ccccc1 (stereo not given)	63.6
COc1cccc(CNCCN2C(=O)c3ccc4c5c(ccc(c35)C2=O)C(=O)N(CCNCc2cccc(OC)c2)C4=O)c1	82.4

* * *

Test system: SK-MEL-5 melanoma
Assay: NCI-60 one-dose screen, 48 h (100 = growth as untreated, 0 = no growth, -100 = all killed)
Conditions: 10 µM unless noted
Compounds without any hit were thinned out: in the full panel of roughly 83,000, 20% have a hit. The source made the active and inactive calls. How the source made its calls: active means growth percent below 10; inactive means the rest.

molecule	growth
COc1cc(C2CC(c3cccc(Nc4ccncc4)c3)=NN2C(C)=O)cc(OC)c1OC (stereo not given)	89.9% (inactive)
COc1cc(NCC(C)(O)CN(CC(C)C)CC(C)C)c2nc(C)ccc2c1 (stereo not given)	86.4% (inactive)
COc1ccc(-c2nc(N/N=C/c3c[nH]c4ccccc34)nc(N3CCOCC3)c2C#N)cc1	101% (inactive)
CC1(C)CCCN1CCCN1c2ccccc2Sc2ccc(Cl)cc21	2.18% (active)
O=C1Nc2c(ccc(Cl)c2Cl)/C1=C/c1ccccn1	83.1% (inactive)

* * *

Let's look at some compounds and their measured growth.
System: UO-31 renal
Assay: NCI-60 one-dose screen, 48 h (100 = growth as untreated, 0 = no growth, -100 = all killed)
Conditions: 10 µM unless noted
The panel holds about 83,000 compounds, 20% with a hit somewhere; the sample as a whole holds those more often.

compound	testTarget	readoutUnits	growth
CCCCN(CCCC)CCc1c(C)cc(C)c(CCN(CCCC)CCCC)c1O	UO-31 renal	%	28.4
Cc1ccccc1-c1cc(Cc2ccc(F)cc2)c(=O)[nH]n1	UO-31 renal	%	70.5
CCCCCCCCN1C(=O)/C(=c2\sc3n(c2=O)C2C(NN=3)N(CC)C(=O)N2CC)c2ccccc21 (stereo not drawn)	UO-31 renal	%	66.8
Fc1ccc(C2CC(c3cccc(Nc4ccncc4)c3)=NN2c2cc(Cl)cc(Cl)c2)cc1 (stereo not drawn)	UO-31 renal	%	47.6
COc1ccc2c(c1)OC13Oc4cc(OC)ccc4C=C1CCCC3=C2	UO-31 renal	%	36.3
O=C(O)CNC(=O)CN1C(=O)c2ccccc2C1=O	UO-31 renal	%	86.3
Cc1cccc(Oc2ccc(Nc3ncnc4ccc(NC(=O)CN(C)C)cc34)cc2Cl)c1	UO-31 renal	%	23.3
CCCCCCNC(=O)Oc1ccc(/C(=C(/CC)Cc2ccccc2)c2ccc(OCCN(CC)CC)cc2)cc1	UO-31 renal	%	58
COc1ccc(-c2c(-c3ccccc3)noc2N)cc1OC	UO-31 renal	%	91.5
c1ccc2c(-c3c4ccsc4cc4[nH]c5ccccc5c34)c[nH]c2c1	UO-31 renal	%	40.1
CC(O)(CO)c1ccccc1 (stereo not drawn)	UO-31 renal	%	91
O=C1CCC(NC(=S)Nc2ccccc2)N1 (stereo not drawn)	UO-31 renal	%	95.3
N#C/C(=C\c1ccc(Br)cc1)n1nnc2cccc(F)c21	UO-31 renal	%	2.69
Cc1nc2sc(C(=O)Nc3cccc(Br)c3)c(N)c2cc1C(=O)c1ccc(C(F)(F)F)cc1	UO-31 renal	%	86.3
COc1cc(-c2cc(=O)oc3cc(O)ccc23)c(OC)c2c1OCO2	UO-31 renal	%	72.2
Cc1ccc(C(=O)Nc2ccccc2C(=O)N/N=C(\c2ccccc2)c2ccccn2)cc1	UO-31 renal	%	3.57
Cn1c(=O)c2[nH]c(CCCc3nc4c([nH]3)c(=O)n(C)c(=O)n4C)nc2n(C)c1=O	UO-31 renal	%	102
CC(C)CN(C(=O)c1ccc(Cl)cc1)c1c(N)n(CC(C)C)c(=O)[nH]c1=O	UO-31 renal	%	98.2
O=C1CCCCCCCCC(O)C(O)CCCC(c2cccs2)O1 (stereo not drawn)	UO-31 renal	%	75.2
Fc1ccccc1CSc1ncnc2nc[nH]c12	UO-31 renal	%	94.9
N#Cc1c(NC(=O)c2cccc(Br)c2)sc2c1CCCC2	UO-31 renal	%	82.3
CCc1c(Nc2ccc(C)cc2)nc(N)[nH]c1=O	UO-31 renal	%	85.8
O=C(Nc1ccccc1)Oc1ccccc1-c1ccccc1	UO-31 renal	%	57.7
